Experiment: Plasma pharmacokinetics of DT2216 in patients, phase 1 dose escalation
Format: in vivo, human
Settings: human, plasma, iv, 0.32 mg/kg, Cycle 1 Day 22, 0.32 mg/kg IV BIW, plasma, mean (CV%), N = 5; read-out: CL (converted)
Parameter measured: clearance (mL/min/kg)
The response must be a number in mL/min/kg with no trailing unit.

Enquiry: I'd like to know its clearance. The compound in question is Cc1ncsc1-c1ccc([C@H](C)NC(=O)[C@@H]2C[C@@H](O)CN2C(=O)[C@@H](NC(=O)CCCCCC(=O)N2CCN(CC[C@H](CSc3ccccc3)Nc3ccc(S(=O)(=O)NC(=O)c4ccc(N5CCN(CC6=C(c7ccc(Cl)cc7)CCC(C)(C)C6)CC5)cc4)cc3S(=O)(=O)C(F)(F)F)CC2)C(C)(C)C)cc1
Return: 0.154

Source of measurements: paper PMC12613848
